# Target system: Sodium/nucleoside cotransporter 2 (Homo sapiens)
# Sequence (O43868 whole entry): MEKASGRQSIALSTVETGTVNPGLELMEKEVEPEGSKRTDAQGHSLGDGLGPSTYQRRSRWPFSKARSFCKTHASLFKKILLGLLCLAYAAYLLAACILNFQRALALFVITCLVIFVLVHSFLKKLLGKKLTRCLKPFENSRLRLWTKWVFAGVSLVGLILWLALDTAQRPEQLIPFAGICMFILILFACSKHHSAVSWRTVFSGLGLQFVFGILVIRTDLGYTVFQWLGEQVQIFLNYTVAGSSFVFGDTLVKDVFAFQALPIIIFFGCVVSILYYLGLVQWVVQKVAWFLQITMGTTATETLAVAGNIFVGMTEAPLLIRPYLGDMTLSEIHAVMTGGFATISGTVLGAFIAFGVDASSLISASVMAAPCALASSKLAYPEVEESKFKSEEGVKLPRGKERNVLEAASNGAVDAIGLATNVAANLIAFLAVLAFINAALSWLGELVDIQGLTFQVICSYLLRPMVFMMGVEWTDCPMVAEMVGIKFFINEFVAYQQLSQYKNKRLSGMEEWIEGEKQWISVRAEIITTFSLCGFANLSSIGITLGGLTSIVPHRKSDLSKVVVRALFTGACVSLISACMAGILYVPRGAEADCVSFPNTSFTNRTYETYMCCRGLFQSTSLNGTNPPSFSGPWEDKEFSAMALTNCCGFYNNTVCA
# Procedure details: Binding affinity to recombinant human CNT2 expressed in Saccharomyces cerevisiae assessed as inhibition of [3H]-uridine transport after 15 mins by scintillation counting analysis
Would you kindly list IC50 for each of these molecules?
# number then unit; no other words

// Input: O=c1ccn([C@@H]2O[C@H](CO)[C@@H](O)[C@H]2O)c(=O)[nH]1 . Output its IC50 only. 32 µM

Retrieve IC50 measured for Nc1ncnc2c1ncn2[C@@H]1O[C@H](CO)[C@@H](O)[C@H]1O and print it. 5.5 µM

Specify reported IC50 for the molecule shown: OC[C@H]1O[C@@H](n2cnc3c(N[C@@H]4CCOC4)ncnc32)[C@H](O)[C@@H]1O 239 µM

----------
# Procedure details: AUC (0 to infinity) in CD-1 mouse at 0.1 mg/kg, iv administered as bolus dose in presence of ENT1 inhibitor NBMPR-P
# Assay type: ADME, organism-based
# Design: time infinity, dose 0.1 mg/kg, route intravenous
# Measurement conditions: plasma
Endpoint label: AUC(0-inf) (ng·h/mL)
The reply should be a number in ng·h/mL, with the unit left off.

Report AUC(0-inf) for OC[C@H]1O[C@@H](n2cnc3c(N[C@@H]4CCOC4)ncnc32)[C@H](O)[C@@H]1O 50.5

----------
# Target system: UniProt Q99808
# Procedure details: Drug transport in human CCRF-CEM cells assessed as ENT1-mediated uptake after 5 secs by Michaelis-Menten equation analysis
# Type: ADME, cell-based
Endpoint label: Km at 5 s (µM)
Quick note: give the figure in µM, leave out the unit.

Give Km at 5 s for the following compound: OC[C@H]1O[C@@H](n2cnc3c(N[C@@H]4CCOC4)ncnc32)[C@H](O)[C@@H]1O 24

----------
Answer each item with its documented pIC50.
# Target system: Sodium/nucleoside cotransporter 1 (Homo sapiens)
# Sequence (O00337 whole entry): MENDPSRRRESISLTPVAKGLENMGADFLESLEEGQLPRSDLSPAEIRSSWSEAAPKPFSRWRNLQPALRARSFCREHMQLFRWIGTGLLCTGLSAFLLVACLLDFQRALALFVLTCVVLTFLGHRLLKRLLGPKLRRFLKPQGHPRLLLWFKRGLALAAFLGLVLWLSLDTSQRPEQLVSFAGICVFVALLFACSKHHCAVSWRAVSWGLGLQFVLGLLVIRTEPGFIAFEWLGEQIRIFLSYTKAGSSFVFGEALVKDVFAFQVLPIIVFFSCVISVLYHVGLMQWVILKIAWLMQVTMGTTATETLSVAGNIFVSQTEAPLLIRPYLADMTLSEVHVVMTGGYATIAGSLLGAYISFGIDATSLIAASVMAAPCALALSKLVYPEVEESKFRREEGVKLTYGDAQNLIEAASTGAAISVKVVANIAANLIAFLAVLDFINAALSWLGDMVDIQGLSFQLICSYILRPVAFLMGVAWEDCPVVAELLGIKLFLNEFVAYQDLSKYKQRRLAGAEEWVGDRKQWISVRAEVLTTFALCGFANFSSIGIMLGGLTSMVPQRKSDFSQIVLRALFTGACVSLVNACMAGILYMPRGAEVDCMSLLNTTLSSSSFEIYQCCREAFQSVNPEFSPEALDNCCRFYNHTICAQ
# Procedure details: Binding affinity to recombinant human CNT1 expressed in Saccharomyces cerevisiae assessed as inhibition of [3H]-uridine transport after 15 mins by scintillation counting analysis
pIC50 field: float, defined as -log10 of concentration (mol/L).

Assign pIC50 to the following record: OC[C@H]1O[C@@H](n2cnc3c(N[C@@H]4CCOC4)ncnc32)[C@H](O)[C@@H]1O [TECADENOSON] 4.39

Return value of pIC50 for input Nc1ncnc2c1ncn2[C@@H]1O[C@H](CO)[C@@H](O)[C@H]1O [ADENOSINE] , no commentary. 5.26

Please supply the value of reported pIC50 for the item O=c1ccn([C@@H]2O[C@H](CO)[C@@H](O)[C@H]2O)c(=O)[nH]1 [URIDINE] 5.24

----------
# Procedure details: Elimination half life in CD-1 mouse at 60 mg/kg, iv administered as bolus dose in absence of ENT1 inhibitor NBMPR-P
# Format: ADME, organism-based
# Design: dose 60 mg/kg, route intravenous
# Measurement conditions: in vivo, read-out: beta t1/2 (converted)
Endpoint label: half-life

Provide measured half-life value, entry: Nc1nc(F)nc2c1ncn2[C@@H]1O[C@H](CO)[C@@H](O)[C@@H]1O [FLUDARABINE] 1.7 h

----------
# Procedure details: Apparent volume of distribution at steady state in CD-1 mouse at 0.1 mg/kg, iv administered as bolus dose in presence of ENT1 inhibitor NBMPR-P
# Format: ADME, organism-based
# Design: dose 0.1 mg/kg, route intravenous
# Measurement conditions: in vivo, read-out: Vdss(app)
Endpoint label: Vd (L/kg)
Write the answer as a number in L/kg, unit excluded.

// Input: OC[C@H]1O[C@@H](n2cnc3c(N[C@@H]4CCOC4)ncnc32)[C@H](O)[C@@H]1O . Output its Vd only. 2.2

----------
# Procedure details: Cmax in CD-1 mouse brain at 0.1 mg/kg, iv administered as bolus dose in presence of ENT1 inhibitor NBMPR-P
# Assay type: ADME, organism-based
# Set-up: dose 0.1 mg/kg, route intravenous
Endpoint label: Cmax (ng/g)
The response must be a number in ng/g with no trailing unit.

Complete the entry with Cmax for OC[C@H]1O[C@@H](n2cnc3c(N[C@@H]4CCOC4)ncnc32)[C@H](O)[C@@H]1O 4

----------
# Procedure details: Elimination half life in CD-1 mouse at 0.1 mg/kg, iv administered as bolus dose in absence of ENT1 inhibitor NBMPR-P
# Type: ADME, organism-based
# Set-up: dose 0.1 mg/kg, route intravenous
# Measurement conditions: in vivo, read-out: beta t1/2 (converted)
Endpoint label: half-life
Note: a bare number is incomplete; add the unit.

State, in one line, measured half-life of OC[C@H]1O[C@@H](n2cnc3c(N[C@@H]4CCOC4)ncnc32)[C@H](O)[C@@H]1O 42 min

----------
# Target system: UniProtKB Q99808
# Sequence (Q99808 whole entry): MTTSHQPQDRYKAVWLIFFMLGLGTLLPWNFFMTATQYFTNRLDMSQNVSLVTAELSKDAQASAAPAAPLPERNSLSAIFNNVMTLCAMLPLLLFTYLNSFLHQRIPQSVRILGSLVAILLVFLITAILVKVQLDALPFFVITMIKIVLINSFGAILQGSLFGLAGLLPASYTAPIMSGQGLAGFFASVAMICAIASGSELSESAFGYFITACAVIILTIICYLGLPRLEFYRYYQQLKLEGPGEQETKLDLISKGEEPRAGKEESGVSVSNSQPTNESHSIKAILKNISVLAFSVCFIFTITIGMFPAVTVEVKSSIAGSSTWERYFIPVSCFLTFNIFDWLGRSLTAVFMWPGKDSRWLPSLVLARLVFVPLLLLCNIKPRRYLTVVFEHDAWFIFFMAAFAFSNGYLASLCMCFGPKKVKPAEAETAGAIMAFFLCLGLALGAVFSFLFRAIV
# Procedure details: Binding affinity to recombinant human ENT1 expressed in Saccharomyces cerevisiae assessed as inhibition of [3H]-uridine transport after 15 mins by scintillation counting analysis
# Measurement conditions: read-out: Ki(app)
For each entry below, report its pKi value.
Formally, pKi is defined as -log10 of the concentration c, with c in mol/L.

Read the entry O=c1ccn([C@@H]2O[C@H](CO)[C@@H](O)[C@H]2O)c(=O)[nH]1 and write its reported pKi. 4.29

Fill in reported pKi for this entry: OC[C@H]1O[C@@H](n2cnc3c(N[C@@H]4CCOC4)ncnc32)[C@H](O)[C@@H]1O 4.96
